Documented Mono across a set of compounds
# Organism: Rattus norvegicus
# EXPERIMENT_NOTES: Open TG-GATES - Regimen: Single
# Format: toxicity, organism-based, Sprague-Dawley
# Set-up: regimen Single, gender Male, age 6 weeks
# STATED_CONDITIONS: in vivo, po, 10 mg/kg, 9 h, tissue Blood, route gavage, dose level Low
Report as a plain number; the unit % is understood.

{"COMPOUND": "CN(C)CCCN1c2ccccc2CCc2ccccc21 [IMIPRAMINE]", "Mono, %": 2.2}

Attention now shifts to the item below.
Q) Find the recorded Mono belonging to CC(C)OC(=O)C(C)(C)Oc1ccc(C(=O)c2ccc(Cl)cc2)cc1 [FENOFIBRATE] and report it.
A) 1.4
